- experiment_summary: NCI Yeast Anticancer Drug Screen. Data for the bub3 strain (AID 167)
- assay_setup: S. cerevisiae bub3 mutant strain, at 50.0 µM (retest, dose inferred, filed as 5.0)
About 79,000 compounds went through this panel and 15% of them were active in at least one assay; those are over-represented in the sample as a whole. Calls of active or inactive are those of the source. No stated cut-off is given here; in the data, active means growth inhibition above about 70%; inactive means the rest.
Pick from active, inactive when you respond.

As a guide, the following entries are already answered.
CC(CC(=O)c1ccc2sc3ccccc3c2c1)C(=O)O (stereo not given)    inactive
COc1ccc(C2SC(C)C(=O)N2c2nc(-c3nc(-c4ccc(Cl)cc4)cs3)cs2)cc1 (stereo not given)    active
Cn1c(=O)c2c(O)c(-c3ccccc3)c(=O)n3c4ccccc4n(c1=O)c23    inactive
Oc1cc(F)cc2cccnc12    active
CC1CCC(C(C)(C)c2ccc(O)cc2)CC1 (stereo not given)    active
Cn1cnc([N+](=O)[O-])c1Sc1ccc(Cl)cc1    active

// query Hello, I am checking results. What call was entered for "N#Cc1c(N)nc2c(N=Nc3ccccc3)c(N)nn2c1Nc1ccccc1" ?
// result inactive

// query Hello, I am checking results. What call was entered for COC(=O)c1ccccc1CC(Cc1ccc2c(c1)CCC2)C(=O)OC (stereo not given) ?
// result inactive

// query Hello, I am checking results. What call was entered for "CC1=C/C(=C\c2ccc([N+](=O)[O-])o2)C(=O)O1" ?
// result active

// query Hello, I am checking results. What call was entered for "CCN1CCNc2c3cc(OC)ccc3nc3c([N+](=O)[O-])ccc1c23" ?
// result inactive

// query Hello, I am checking results. What call was entered for "CCNc1cc2c3c(c1)CCCN3CCC2" ?
// result inactive

* * *

- experiment_summary: NCI Yeast Anticancer Drug Screen. Data for the rad50 strain (AID 155);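 further: 0% = growth of vehicle-only cultures of the same strain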
- assay_setup: S. cerevisiae rad50 strain growth inhibition; at 5.0 µM (retest, dose inferred, filed as 0.5); stronger effect = higher value
This is part of a sample that, as a whole, favours compounds with a hit. Of some 79,000 tested, about 15% had one in any assay.
result_type: growth inhibition (%)
Numbers only, in %.

CCc1[nH]c2ccccc2c1N1C(=O)CC2(CCN(Cc3ccccc3)CC2)CC1=O    -4
O=C1CNC(=O)c2cc(N=Cc3cc(Br)ccc3O)ccc2N1    10
CC(O)CCCOC(c1ccccc1)(c1ccccc1)c1ccccc1 (configuration not stated)    19
CC1CC(N)=NC1C(=O)NCCC#N (configuration not stated)    20
Cc1c(-c2ccccc2)ccnc1/C=N/NS(=O)(=O)c1ccccc1    0
CC(CN1CCCCCCC1)C(c1ccccc1)c1ccccc1 (configuration not stated)    2
Clc1cc2n[nH]nc2c(Cl)c1Cl    -6
C=C1C(=O)OC(CCCCCCCCCCCCC)C1C(=O)O (configuration not stated)    69

For every record below, what is its growth inhibition?
1. COc1ccc(-c2cc(-c3ccco3)c(C#N)c(=S)n2C2OC(CO)C(O)C(O)C2O)cc1 (configuration not stated)
2. CC(C)c1ccc(O)c(O)c(=O)c1
3. N#Cc1c(N)nc2c(N=Nc3ccccc3)c(N)nn2c1Nc1ccccc1
4. C[n+]1cc2c3ccccc3ccc2c2ccccc21

// result
1: -8; 2: 14; 3: -2; 4: 37

* * *

- experiment_summary: NCI Yeast Anticancer Drug Screen. Data for the rad50 strain (AID 155);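 further: 0% = growth of vehicle-only cultures of the same strain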
- assay_setup: S. cerevisiae rad50 strain growth inhibition; at 5.0 µM (retest, dose inferred, filed as 0.5); stronger effect = higher value
This is part of a sample that, as a whole, favours compounds with a hit. Of some 79,000 tested, about 15% had one in any assay.
result_type: growth inhibition (%)
Numbers only, in %.

Answered examples (5):
C=C1C(=O)O[C@@H]2CC(CO)=C([C@@H](C)CCCO)[C@@H](OC(=O)/C(C)=C\C)[C@H]12    3
CC(CC(=O)c1ccc2sc3ccccc3c2c1)C(=O)O (stereo not given)    6
CN(C)C(=O)/C=C/c1c[nH]c(=O)[nH]c1=O    -146
COc1ccccc1NC(=O)/C(=C/n1c(=S)sc2ccccc21)C(C)=O    -19
C=C1CCC[C@@H]2[C@@](C)(CC3=CC(=O)C=CC3=O)C(C)CC[C@]12C (stereo not given in full)    39

For every record below, what is its growth inhibition?
1. CCOC(=O)C1=C(c2ccccc2)SC(c2ccccc2)N(C(C)C)C1=O (stereo not given)
2. CN(C)Cc1ccc2c(c1)c1c(n2Cc2ccccc2)CCCC1
3. O=C1/C(=C/c2cccc(Br)c2)CCc2ccccc21
4. COc1ccc2c(c1)Cc1ccccc1C2=O
5. O=C(O)CCCc1ccc2ccccc2c1

// result
[8, -2, 1, 14, -5]
